Reported values of MIC for individual entries
- System: S. pneumoniae
- Measurement protocol: MIC, broth microdilution
- Format: cell-based, Streptococcus pneumoniae
- Details: S. pneumoniae PU09, mef
Recorded metric: MIC (µg/mL)

CC[C@H]1OC(=O)[C@H](C)[C@@H](OC(=O)NCCCCCC#Cc2ccc3c(c2)c(=O)c(C(=O)O)cn3C2CC2)[C@H](C)[C@@H](O[C@@H]2O[C@H](C)C[C@H](N(C)C)[C@H]2O)[C@](C)(O)C[C@@H](C)CN(C)[C@H](C)[C@H]2OC(=O)O[C@@]21C [110a] = 2
CC[C@H]1OC(=O)[C@H](C)[C@@H](OC(=O)NCCCC#Cc2ccc3c(=O)c(C(=O)O)cn(C4CC4)c3c2)[C@H](C)[C@@H](O[C@@H]2O[C@H](C)C[C@H](N(C)C)[C@H]2O)[C@](C)(O)C[C@@H](C)CN(C)[C@H](C)[C@H]2OC(=O)O[C@@]21C [108c] = 1

---

- Measurement protocol: In vivo pharmacokinetic study
- Design: species or system SD rats
- Details: SD (Sprague-Dawley), rat, plasma, iv; male SD rats, i.v. 5 mg/kg; read-out: AUC0-24
- Description: The SD rats were fasted overnight and dosed i.v. at a dose of 5 mg/kg in a solution of DMSO/PEG 400/water (5%/24%/71%). […] The supernatant was diluted and analyzed by LC-MS/MS. […] The quantification of drug concentration in plasma samples was performed using the internal standard method, and the obtained pharmacokinetic parameters were calculated using Phoenix WinNonlin software.
Recorded metric: AUC(0-t) (ng·h/mL)

CC[C@H]1OC(=O)[C@H](C)[C@@H](OC(=O)NCCCCCCC#Cc2ccc3c(=O)c(C(=O)O)cn(C)c3c2)[C@H](C)[C@@H](O[C@@H]2O[C@H](C)C[C@H](N(C)C)[C@H]2O)[C@](C)(OC)C[C@@H](C)C(=O)[C@H](C)[C@H]2NC(=O)O[C@@]21C = 7080
CCOC(=O)c1cn(C)c2cc(C#CCCCCCCNC(=O)O[C@H]3[C@H](C)[C@@H](O[C@@H]4O[C@H](C)C[C@H](N(C)C)[C@H]4O)[C@](C)(OC)C[C@@H](C)C(=O)[C@H](C)[C@H]4NC(=O)O[C@]4(C)[C@@H](CC)OC(=O)[C@@H]3C)ccc2c1=O [88h] = 1760

---

Reported MIC is given for each of the following molecules.
- System: S. pneumoniae
- Measurement protocol: MIC, broth microdilution
- Format: cell-based, Streptococcus pneumoniae
- Details: S. pneumoniae PU09, mef
Recorded metric: MIC

CC[C@H]1OC(=O)[C@H](C)[C@@H](OC(=O)NCCCCCCCCc2ccc3c(c2)c(=O)c(C(N)=O)cn3C2CC2)[C@H](C)[C@@H](O[C@@H]2O[C@H](C)C[C@H](N(C)C)[C@H]2O)[C@](C)(OC)C[C@@H](C)C(=NOC)[C@H](C)[C@H]2OC(=O)O[C@@]21C [62b] = 4 µg/mL
CC[C@H]1OC(=O)[C@H](C)[C@@H](OC(=O)NCCCCCCC#Cc2ccc3c(c2)c(=O)c(C(=O)O)cn3C2CC2)[C@H](C)[C@@H](O[C@@H]2O[C@H](C)C[C@H](N(C)C)[C@H]2O)[C@](C)(O)C[C@@H](C)CN(C)[C@H](C)[C@H]2OC(=O)O[C@@]21C [111a] = 2 µg/mL
CC[C@H]1OC(=O)[C@H](C)[C@@H](OC(=O)NCCCCCC#Cc2ccc3c(=O)c(C(=O)O)cn(C4CC4)c3c2)[C@H](C)[C@@H](O[C@@H]2O[C@H](C)C[C@H](N(C)C)[C@H]2O)[C@](C)(O)C[C@@H](C)CN(C)[C@H](C)[C@H]2OC(=O)O[C@@]21C [110c] = 0.06 µg/mL
CC[C@H]1OC(=O)[C@H](C)[C@@H](OC(=O)NCCOCCC#Cc2ccc3c(=O)c(C(=O)O)cn(C4CC4)c3c2)[C@H](C)[C@@H](O[C@@H]2O[C@H](C)C[C@H](N(C)C)[C@H]2O)[C@](C)(O)C[C@@H](C)CN(C)[C@H](C)[C@H]2OC(=O)O[C@@]21C [116c] = 1 µg/mL

---

- Test system: H. influenzae
- Measurement protocol: MIC, broth microdilution
- Assay type: cell-based, Haemophilus influenzae
- Details: H. influenzae ATCC49247, Azi-S
Measured MIC values are reported for all entries that follow.
Recorded metric: MIC (µg/mL)

CC[C@H]1OC(=O)[C@H](C)[C@@H](OC(=O)NCCCCCCCCc2ccc3c(=O)c(C(=O)O)cn(C)c3c2)[C@H](C)[C@@H](O[C@@H]2O[C@H](C)C[C@H](N(C)C)[C@H]2O)[C@](C)(O)C[C@@H](C)CN(C)[C@H](C)[C@@H](O)[C@]1(C)O [107g] = 8
CC[C@H]1OC(=O)[C@H](C)[C@@H](OC(=O)NCCCCCCCCc2ccc3c(=O)c(C(=O)O)cn(C)c3c2)[C@H](C)[C@@H](O[C@@H]2O[C@H](C)C[C@H](N(C)C)[C@H]2O)[C@](C)(OC)C[C@@H](C)C(=O)[C@H](C)[C@H]2NC(=O)O[C@@]21C [90g] = 4
CC[C@H]1OC(=O)[C@H](C)[C@@H](OC(=O)NCCOCCC#Cc2ccc3c(c2)c(=O)c(C(=O)O)cn3C2CC2)[C@H](C)[C@@H](O[C@@H]2O[C@H](C)C[C@H](N(C)C)[C@H]2O)[C@](C)(O)C[C@@H](C)CN(C)[C@H](C)[C@H]2OC(=O)O[C@@]21C [116a] = 64

---

- Measurement protocol: CCK-8 assay for cytotoxicity
- Format: cell-based, human
- Details: human HepG2 and HEK293T cells; read-out: CC50 (cytotoxicity)
Recorded metric: CC50 at 48 h

CC[C@H]1OC(=O)[C@H](C)[C@@H](OC(=O)NCCCCCCC#Cc2ccc3c(=O)c(C(=O)O)cn(C)c3c2)[C@H](C)[C@@H](O[C@@H]2O[C@H](C)C[C@H](N(C)C)[C@H]2O)[C@](C)(OC)C[C@@H](C)C(=O)[C@H](C)[C@H]2NC(=O)O[C@@]21C [MCX-219] = 26 to 29 µM

---

Recorded metric: melting point

CC[C@H]1OC(=O)[C@H](C)[C@@H](OC(=O)NCCCNCCC#Cc2ccc3c(=O)c(C(=O)O)cn(C4CC4)c3c2)[C@H](C)[C@@H](O[C@@H]2O[C@H](C)C[C@H](N(C)C)[C@H]2O)[C@](C)(OC)C[C@@H](C)C(=O)[C@H](C)[C@H]2NC(=O)O[C@@]21C [98c] = 148.6 to 149.5 °C
CC[C@H]1OC(=O)[C@H](C)[C@@H](OC(=O)NCCCOCCC#Cc2ccc3c(=O)c(C(=O)O)c[nH]c3c2)[C@H](C)[C@@H](O[C@@H]2O[C@H](C)C[C@H](N(C)C)[C@H]2O)[C@](C)(OC)C[C@@H](C)C(=O)[C@H](C)[C@H]2NC(=O)O[C@@]21C (hydrate or solvate) [95i] = 163.7 to 164.9 °C
CC[C@H]1OC(=O)[C@H](C)[C@@H](OC(=O)NCCCCCCC#Cc2ccc3c(=O)c(C(=O)O)c[nH]c3c2)[C@H](C)[C@@H](O[C@@H]2O[C@H](C)C[C@H](N(C)C)[C@H]2O)[C@](C)(OC)C[C@@H](C)C(=O)[C@H](C)[C@H]2NC(=O)O[C@@]21C (hydrate or solvate) [88i] = 162.9 to 166 °C
CCOC(=O)c1cn(C)c2cc(C#CCCCCCCNC(=O)O[C@H]3[C@H](C)[C@@H](O[C@@H]4O[C@H](C)C[C@H](N(C)C)[C@H]4O)[C@](C)(OC)C[C@@H](C)C(=O)[C@H](C)[C@H]4NC(=O)O[C@]4(C)[C@@H](CC)OC(=O)[C@@H]3C)ccc2c1=O (hydrate or solvate) [88h] = 141.1 to 142 °C
CC[C@H]1OC(=O)[C@H](C)[C@@H](OC(=O)NCCCCOCCC#Cc2ccc3c(=O)c(C(=O)O)cn(C)c3c2)[C@H](C)[C@@H](O[C@@H]2O[C@H](C)C[C@H](N(C)C)[C@H]2O)[C@](C)(OC)C[C@@H](C)C(=O)[C@H](C)[C@H]2NC(=O)O[C@@]21C (hydrate or solvate) [96g] = 172.1 to 173.5 °C
CCC1OC(=O)C(C)C(OC(=O)NCCCOCCC#Cc2ccc3c(=O)c(C(=O)O)cn(C4CC4)c3c2)C(C)C(OC2OC(C)CC(N(C)C)C2O)C(C)(OC)CC(C)C(=NOC)C(C)C2OC(=O)OC12C (stereo not drawn) (hydrate or solvate) [72c] = 144.6 to 145.2 °C
CC[C@H]1OC(=O)[C@H](C)[C@@H](OC(=O)NCCCOCCC#Cc2ccc3c(=O)c(C(=O)O)cn(C4CC4)c3c2)[C@H](C)[C@@H](O[C@@H]2O[C@H](C)C[C@H](N(C)C)[C@H]2O)[C@](C)(OC)C[C@@H](C)C(=O)[C@H](C)[C@H]2NC(=O)O[C@@]21C (hydrate or solvate) [95c] = 163.6 to 163.9 °C
CC[C@H]1OC(=O)[C@H](C)[C@@H](OC(=O)NCCCCCCC#Cc2ccc3c(=O)c(C(=O)O)cn(C)c3c2)[C@H](C)[C@@H](O[C@@H]2O[C@H](C)C[C@H](N(C)C)[C@H]2O)[C@](C)(OC)C[C@@H](C)C(=O)[C@H](C)[C@H]2NC(=O)O[C@@]21C (hydrate or solvate) = 179.5 to 180.3 °C
CC[C@H]1OC(=O)[C@H](C)[C@@H](OC(=O)NCCCOCCC#Cc2ccc3c(=O)c(C(=O)O)cn(C)c3c2)[C@H](C)[C@@H](O[C@@H]2O[C@H](C)C[C@H](N(C)C)[C@H]2O)[C@](C)(OC)C[C@@H](C)C(=O)[C@H](C)[C@H]2NC(=O)O[C@@]21C (hydrate or solvate) = 157.9 to 158.8 °C
